assay-method-text: Phase 1 clinical study: plasma pharmacokinetics of prodrug and ibuprofen
Format: in vivo, human
conditions: human, plasma, topical or ocular, 140 mg, Day 1; 140 mg topical; read-out: prodrug Tmax, median (range)
measurement-label: Tmax (h)
Unit h implied. Number only.

Incoming: Provide measured Tmax value, entry: CCN(CC)CCOC(=O)C(C)c1ccc(CC(C)C)cc1 (stereo not shown)
Outgoing: 18

* * *

assay-method-text: Phase 1 clinical study: plasma pharmacokinetics of prodrug and ibuprofen
Format: in vivo, human
conditions: human, plasma, topical or ocular, 17.5 mg, Day 12; 17.5 mg b.i.d. topical; read-out: prodrug Tmax, median (range)
measurement-label: Tmax (h)
Unit h implied. Number only.

Incoming: Provide measured Tmax value, entry: CCN(CC)CCOC(=O)C(C)c1ccc(CC(C)C)cc1 (stereo not shown)
Outgoing: 8
